molecular target: T1, biotinylated human plasma Kallikrein (human, UniProt P03952 20-638, biotinylated); assay: phage binding assay, signal:background
T1 construct: also called Biotinylated hPK
T1 sequence (P03952 20-638 limits assumed): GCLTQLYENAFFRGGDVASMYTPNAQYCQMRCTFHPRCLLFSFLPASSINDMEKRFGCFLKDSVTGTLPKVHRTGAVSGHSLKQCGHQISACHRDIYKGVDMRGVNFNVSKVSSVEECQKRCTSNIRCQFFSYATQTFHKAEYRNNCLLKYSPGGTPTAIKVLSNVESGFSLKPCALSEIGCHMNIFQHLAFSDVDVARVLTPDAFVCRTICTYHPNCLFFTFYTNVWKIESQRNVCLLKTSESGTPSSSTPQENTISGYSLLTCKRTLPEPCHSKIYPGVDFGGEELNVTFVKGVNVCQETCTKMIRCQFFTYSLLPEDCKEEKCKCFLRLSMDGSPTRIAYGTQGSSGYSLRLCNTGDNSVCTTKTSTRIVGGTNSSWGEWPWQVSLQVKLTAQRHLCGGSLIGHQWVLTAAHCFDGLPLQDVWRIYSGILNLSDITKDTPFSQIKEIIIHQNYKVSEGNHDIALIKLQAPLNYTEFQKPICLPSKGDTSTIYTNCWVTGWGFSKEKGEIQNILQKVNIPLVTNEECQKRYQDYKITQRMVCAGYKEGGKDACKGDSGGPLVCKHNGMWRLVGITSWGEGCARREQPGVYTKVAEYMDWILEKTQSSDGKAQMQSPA
Numbered stars: 1 amine (or outer) side, 2 acyl side, 3 side chain; on linkers, the order of the positions; unused ones are H or OH. Bridge positions count the residues as written; N and C are the ends. Ends that are not written are not given here. TBMB = c1c(C[*:1])cc(C[*:3])cc1C[*:2]
observation-type: Binding assay signal
Field format: numeric only.

binder	Binding assay signal
CAWPARCTHYDLC (linker 1-7-13 via TBMB (inferred)) [SEQ ID NO 142]	70
CMWPARCMHQDLC (linker 1-7-13 via TBMB (inferred)) [SEQ ID NO 129]	79
CSWPARCLHDDLC (linker 1-7-13 via TBMB) [SEQ ID NO 162]	59
CAWPARCTHTDLC (linker 1-7-13 via TBMB (inferred)) [SEQ ID NO 120]	92

Query binder follows.
Query :: # get_value(readout='Binding assay signal', item= CSWPARCTHQDLC (linker 1-7-13 via TBMB) [SEQ ID NO 73] )
Result :: 110
